Value source: patent US20230093861A1

Test system: P-Akt (S473)
Method Description: Cell based AlphaLISA assay, inhibition of P-Akt (S473) (mTORC2 substrate phosphorylation) in MDA-MB-468 cells
Condition Info: Homo sapiens, 4 h, AlphaLISA, two to four hours at 37° C., read-out: pIC50 for Inhibition of mTORC1 and mTORC2 Substrate Phosphorylation, p-AKT 1/2/3 -(S473) (converted)
Reported IC50 values for a set of molecules
Measurement Kind: IC50

1. CO[C@H]1C[C@@H]2CC[C@@H](C)[C@@](O)(O2)C(=O)C(=O)N2CCCC[C@H]2C(=O)O[C@H]([C@H](C)C[C@@H]2CC[C@@H](OCCCCc3cn(CCOCCOCCOCCOCCOCCOCCOCCOCCC(=O)NCc4ccc(Cn5nc(-c6ccc7oc(N)nc7c6)c6c(N)ncnc65)cc4)nn3)[C@H](OC)C2)CC(=O)[C@H](C)/C=C(\C)[C@@H](O)[C@@H](OC)C(=O)[C@H](C)C[C@H](C)/C=C/C=C/C=C/1C = 0.00316 to 0.0316 µM
2. CO[C@H]1C[C@@H]2CC[C@@H](C)[C@@](O)(O2)C(=O)C(=O)N2CCCC[C@H]2C(=O)O[C@H]([C@H](C)C[C@@H]2CC[C@@H](OCCCCc3cn(CCOCCOCCOCCOCCOCCOCCC(=O)NCCCCn4nc(-c5ccc6oc(N)nc6c5)c5c(N)ncnc54)nn3)[C@H](OC)C2)CC(=O)[C@H](C)/C=C(\C)[C@@H](O)[C@@H](OC)C(=O)[C@H](C)C[C@H](C)/C=C/C=C/C=C/1C = 0.00316 to 0.0316 µM
3. CO[C@H]1C[C@@H]2CC[C@@H](C)[C@@](O)(O2)C(=O)C(=O)N2CCCC[C@H]2C(=O)O[C@H]([C@H](C)C[C@@H]2CC[C@@H](OCCCCc3cn(CCOCCOCCOCCOCCOCCC(=O)NCCCCn4nc(-c5ccc6oc(N)nc6c5)c5c(N)ncnc54)nn3)[C@H](OC)C2)CC(=O)[C@H](C)/C=C(\C)[C@@H](O)[C@@H](OC)C(=O)[C@H](C)C[C@H](C)/C=C/C=C/C=C/1C = 0.0316 to 1 µM
